- System: Micrococcus luteus
- protocol-summary: Bactericidal activity against Micrococcus luteus MTCC 2470 assessed as bacterial killing incubated for 24 hrs
- Assay type: functional
- condition-summary: MTCC 2470, 24 h
measurement-label: MBC
Hey, just the number and the unit after it is fine.

[ask] // lookup MBC for `O=C(N/N=C/c1ccc(O)cc1)c1n[nH]c2c1Cc1ccccc1-2`
[reply] 15.6 µg/mL

[ask] // lookup MBC for `COc1ccc2c(c1)Cc1c(C(=O)N/N=C/c3c(F)cc(F)cc3F)n[nH]c1-2`
[reply] 15.6 µg/mL

[ask] // lookup MBC for `COc1cc(/C=N/NC(=O)c2n[nH]c3c2Cc2ccccc2-3)ccc1O`
[reply] 15.6 µg/mL

====

Exercise: state measured MIC for each of the molecules provided.
- Tested on: Candida albicans
- protocol-summary: Antifungal activity against Candida albicans MTCC 7315 assessed as inhibition of fungal growth incubated for 24 hrs by agar well diffusion method
- Type: functional
- condition-summary: MTCC 7315, 24 h
Unit µg/mL implied. Number only.

[ask] // lookup MIC for Clc1ccc(COC(Cn2ccnc2)c2ccc(Cl)cc2Cl)c(Cl)c1 (stereo not drawn) [MICONAZOLE]
[reply] 3.9

[ask] // lookup MIC for `COc1cc(/C=N/NC(=O)c2n[nH]c3c2Cc2ccccc2-3)ccc1O`
[reply] 7.8

[ask] // lookup MIC for `O=C(N/N=C/c1ccc(O)cc1)c1n[nH]c2c1Cc1cc(F)ccc1-2`
[reply] 15.6

Data provenance: ChEMBL document CHEMBL4373647
